test summary: drug combination growth inhibition, ovarian cancer – cell-based, oncology-focused library, rucaparib conditional, profiling panel (AID 1508598)
assay setup: patient-derived ovarian cancer cells, CellTiter-Glo viability, 144 h; at 0.0781 µM; OCI-C5x cells; with rucaparib 10 µM; 100% = cells with rucaparib alone
The source made the active and inactive calls.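 How the source made its calls: active means normalized viability below 100% at a tested concentration; inactive means the rest.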
Please answer using one outcome listed in label 1 (active), label 0 (inactive)

INPUT: Per the assay record, what outcome was assigned to `Cc1cc([N+](=O)[O-])ccc1NS(=O)(=O)c1cc(Cl)ccc1Cl` ?
OUTPUT: label 0

INPUT: Per the assay record, what outcome was assigned to `CCOC(=O)c1cnc2ccc(-c3cncc(NS(=O)(=O)c4ccccc4)c3)cn12` ?
OUTPUT: label 1

INPUT: Per the assay record, what outcome was assigned to CC(=O)O[C@]12CO[C@@H]1C[C@H](O)[C@]1(C)C(=O)[C@H](O)C3=C(C)[C@H](OC(=O)[C@H](O)[C@@H](NC(=O)OC(C)(C)C)c4ccccc4)C[C@](O)([C@H](OC(=O)c4ccccc4)C21)C3(C)C (some centres not stated) ?
OUTPUT: label 1

INPUT: Per the assay record, what outcome was assigned to `Cc1cc(NC(=O)c2cccc(NC(=O)/C=C/CN(C)C)c2)ccc1Nc1nccc(-c2cccnc2)n1` ?
OUTPUT: label 0

INPUT: Per the assay record, what outcome was assigned to CC(C)CC(CC(=O)NO)C(=O)N[C@@H](Cc1ccc2ccccc2c1)C(=O)N[C@@H](C)C(=O)NCCN (some centres not stated) ?
OUTPUT: label 0

INPUT: Per the assay record, what outcome was assigned to C[C@@]12CC[C@H]3c4ccc(O)cc4C[C@@H](CCCCCCCCCS(=O)CCCC(F)(F)C(F)(F)F)[C@H]3[C@@H]1CC[C@@H]2O (some centres not stated) ?
OUTPUT: label 0

INPUT: Per the assay record, what outcome was assigned to `CN(CC(=O)N(Cc1ccc(C2CCCCC2)cc1)c1ccc(C(=O)O)cc1)S(=O)(=O)c1c(F)c(F)c(F)c(F)c1F` ?
OUTPUT: label 0
